Where do the numbers come from? From paper PMC10703047.

- assaySystem: DosR (DevR) (Mycobacterium tuberculosis H37Rv) (UniProt P9WMF9)
- Sequence (P9WMF9 whole entry): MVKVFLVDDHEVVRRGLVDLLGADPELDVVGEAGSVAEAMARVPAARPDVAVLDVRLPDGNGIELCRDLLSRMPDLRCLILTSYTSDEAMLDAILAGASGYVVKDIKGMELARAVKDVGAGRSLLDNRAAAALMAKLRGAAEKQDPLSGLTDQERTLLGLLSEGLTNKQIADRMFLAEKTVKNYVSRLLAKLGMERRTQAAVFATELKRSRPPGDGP
- experimentalProtocol: EMSA
measuredQuantity: binding

* TGGTATCTGACACTGCTACGTTCCTTTCCGCTTGTTGGTCCACGTCCTTGCACGAGCCAACCGGACCATGGTCCGATTTATTCCGATCGCGTTACAGTGCAAAGGTGAGCGGCGCCGAGC (double strand) [rv3054 promoter] | binds
* TAAGTGGACACGAACCGTAAGTTTAGACTTACGGATATTCTTCCGCAAGGGTGCGCGGGTGGTGTGACACGTGATCCGGGCATCCCGTCACCCATGGCGTTGGAGCCGAGTATCGGTTGGCGACGTTGGCCCGCCGGAAAGTCGACTGGTACAAGCATTTTCCGAGAACCCATGCGGCGCGTCGCGGCGATGACCGGCAGAGAGGCTCCCTAGTATTGCGGCGTGCTGGATCGCTATGGAACCGA (double strand) [rv1955 promoter] | binds
* AGCGGGATCGCATCACGCATTGGGTACCTCCGATGCTGGCGGATAAAGCCTTTCGTGCCGGCGGATGATCCGAGGTCGCTAGCTGGCGAGGGCCATGGGCGAGCA (double strand) [rv2625 promoter] | no binding
* AGCGGTTCGGACTCCACCGCGTCTCCTGAGAGCTTCAGCGTTACATCGGTTGACGAGTTGAAGAATTTATCAGATAGTGCGGATGCGTGCGGGCCGCCCGCGGCCAATCGGCTACGGCGTACGCGAGTCAGC (double strand) [rv0081 promoter] | no binding
